Assay: Aqueous solubility of compound
Format: physicochemical
Conditions: buffer
value_kind: solubility (µg/mL)
Use µg/mL as the unit, but write only the number.

Output solubility of CNC(=O)C(=O)[C@H](CCC(C)(F)F)NC(=O)[C@@H]1[C@H]2CCC[C@H]2CN1C(=O)[C@@H](NC(=O)OC)C(C)(C)C
4500

###

Biological target: Nuclear receptor subfamily 1 group I member 2 (Homo sapiens)
Sequence (O75469 whole entry): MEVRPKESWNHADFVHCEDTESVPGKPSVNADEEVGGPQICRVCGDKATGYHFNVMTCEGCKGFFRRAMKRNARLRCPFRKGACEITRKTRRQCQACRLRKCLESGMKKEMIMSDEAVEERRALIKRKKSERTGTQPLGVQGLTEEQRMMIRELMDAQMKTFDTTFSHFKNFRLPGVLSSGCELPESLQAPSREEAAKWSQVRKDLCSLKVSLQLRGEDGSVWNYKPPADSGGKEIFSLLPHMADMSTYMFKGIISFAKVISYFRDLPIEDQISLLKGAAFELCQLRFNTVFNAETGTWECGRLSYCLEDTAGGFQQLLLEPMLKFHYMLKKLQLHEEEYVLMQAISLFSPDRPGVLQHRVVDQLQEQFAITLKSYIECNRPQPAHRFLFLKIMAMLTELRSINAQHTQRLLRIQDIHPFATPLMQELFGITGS
Assay: Activation of PXR (unknown origin)
value_kind: EC50 (µM)
Use µM as the unit, but write only the number.

Reference set (3 entries):
[
  {
    "smiles_notation": "COC(=O)N[C@H](C(=O)N1CC2(CCCCC2)C[C@H]1C(=O)N[C@@H](CCC(C)(F)F)C(=O)C(=O)NC1CCCCC1)C(C)(C)C",
    "experimental_target": "Nuclear receptor subfamily 1 group I member 2 (Homo sapiens)",
    "EC50 / µM": 2.3
  },
  {
    "smiles_notation": "COC(=O)N[C@H](C(=O)N1CC2(CCCCC2)C[C@H]1C(=O)N[C@@H](CCC(C)(F)F)C(=O)C(=O)NC1CC1)C(C)(C)C",
    "experimental_target": "Nuclear receptor subfamily 1 group I member 2 (Homo sapiens)",
    "EC50 / µM": 6.8
  },
  {
    "smiles_notation": "COC(=O)N[C@H](C(=O)N1CC2(CCCCC2)C[C@H]1C(=O)N[C@@H](CCC(C)(F)F)C(=O)C(=O)NCc1ccccc1)C(C)(C)C",
    "experimental_target": "Nuclear receptor subfamily 1 group I member 2 (Homo sapiens)",
    "EC50 / µM": 3.9
  }
]

Here's the next entry for you.
Output EC50 of CNC(=O)C(=O)[C@H](CCC(C)(F)F)NC(=O)[C@@H]1CC2(CCCCC2)CN1C(=O)[C@@H](NC(=O)OC)C(C)(C)C
5.8

###

Assay: Oral bioavailability in human
Format: ADME, organism-based
Conditions: in vivo
value_kind: bioavailability (%)
Use % as the unit, but write only the number.

Output bioavailability of CNC(=O)C(=O)[C@H](CCC(C)(F)F)NC(=O)[C@@H]1[C@H]2CCC[C@H]2CN1C(=O)[C@@H](NC(=O)OC)C(C)(C)C
67

###

Target: UniProtKB P0DTD1
Assay: Inhibition of wild type recombinant SARS-CoV-2 3CLpro (1 to 306 residues) expressed in Escherichia coli (DE3) competent cells using CP488-ESATLQSGLRKAK-(CPQ2)-NH2 as substrate preincubated for 30 mins followed by substrate addition and measured after 4 hrs by FRET assay
pIC50 reference
// pIC50: -log10(molar conc.)

Reference set (5 entries):
[
  {
    "smiles_notation": "COC(=O)N[C@H](C(=O)N1CC2(CCCCC2)C[C@H]1C(=O)N[C@@H](CCC(F)F)C(=O)C(=O)NC1CC1)C(C)(C)C",
    "experimental_target": "UniProtKB P0DTD1",
    "value_kind": "pIC50",
    "numeric_value": 6.91
  },
  {
    "smiles_notation": "CC(F)(F)CC[C@H](NC(=O)[C@@H]1CC2(CCCCC2)CN1C(=O)c1cc2ccccc2[nH]1)C(=O)C(=O)NC1CC1",
    "experimental_target": "UniProtKB P0DTD1",
    "value_kind": "pIC50",
    "numeric_value": 7.19
  },
  {
    "smiles_notation": "CCCC[C@H](NC(=O)[C@@H]1CC2(CCCCC2)CN1C(=O)[C@@H](NC(=O)OC)C(C)(C)C)C(=O)C(=O)NC1CC1",
    "experimental_target": "UniProtKB P0DTD1",
    "value_kind": "pIC50",
    "numeric_value": 6.15
  },
  {
    "smiles_notation": "CC(F)(F)CC[C@H](NC(=O)[C@@H]1[C@@H]2[C@H](CN1C(=O)[C@@H](NC(=O)NC1(CS(=O)(=O)C(C)(C)C)CCCCC1)C(C)(C)C)C2(C)C)C(=O)C(=O)NC1CC1",
    "experimental_target": "UniProtKB P0DTD1",
    "value_kind": "pIC50",
    "numeric_value": 6.89
  },
  {
    "smiles_notation": "COC(=O)N[C@H](C(=O)N1CC2(CCCCC2)C[C@H]1C(=O)N[C@@H](CCC(C)(F)F)C(=O)C(=O)NCc1ccncc1)C(C)(C)C",
    "experimental_target": "UniProtKB P0DTD1",
    "value_kind": "pIC50",
    "numeric_value": 7.52
  }
]

Here's the next entry for you.
Output pIC50 of COC(=O)N[C@H](C(=O)N1CC2(CCCCC2)C[C@H]1C(=O)N[C@@H](CCC(F)(F)F)C(=O)C(=O)NC1CC1)C(C)(C)C
6.42
